TARGET_OR_TEST_SYSTEM: human IL-13 variant (R130Q) (human, UniProt P35225 35-146)
Sequence (P35225 35-146 limits assumed, stated change not applied): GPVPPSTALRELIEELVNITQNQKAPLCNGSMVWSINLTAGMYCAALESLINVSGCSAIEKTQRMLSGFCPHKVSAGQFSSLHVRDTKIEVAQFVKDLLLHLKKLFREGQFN
METHOD_SUMMARY: cell-based or functional assay
Recorded Average IC50, IL-13-induced TARC production by A-549 cells for the following binders
Expressed in nM, but write only the number.

BINDER | MEAS_VALUE
6C8 (antibody, V domains shown) VH: QVQLKESGPGLVAPSQSLSITCTVSEFSLTGSSVNWVRQPPGKGLEWLGMIWGDGRIDYNSALKSRLSISKDNSKSQVFLKMNSLQTDDTARYYCARDGYYPYAMNYWGQGTSVTVSS VL: NIVLTQSPASLAVSLGQRATISCRASESVDSYGNSFMHWYQQKPGQPPKLLIYLASNLESGVPARFSGSGSRADFTLTIDPVEADDAATYYCQQNNENPRTFGGGTKLEIKR | 0.34

## Input Which Average IC50, IL-13-induced TARC production by A-549 cells is reported for this binder? 29G5 (antibody, V domains shown) VH: QVTLKESGPGILQPSQTLSLTCSFSGFSLSTSDMGVDWIRQPSGKDLEWLAHIWWDDVKRYNPALKSRLTISKDTSSSQVFLMLASVDTADTATYYCARIVSSGYIYYALDYWGQGTSVTVSS VL: DIQMTQTASSLSASLGDRVTISCRASQDIRNYLNWYQRKPDGTVKLLIYYTSRLHSGVPSRFSGSGSGTDYSLTISNLEQEDIATYFCQQGNTLPLTFGGGTKLEIKR
## Output 0.2

## Input Which Average IC50, IL-13-induced TARC production by A-549 cells is reported for this binder? 13C5 (antibody, V domains shown, also called murine 13C5) VH: QVTLKESGPGILQPSQTLSLTCSFSGFSLSTSDMGVDWIRQPSGKGLEWLAHIWWDDVKRYNPALKSRLTISKDTSSSQVFLMLASVDTADTATYYCARTVSSGYIYYAMDYWGQGTSVTVSS VL: DIQMTQTASSLSASLGDRVTISCRASQDIRNYLNWYQRKPDGTVKLLIFYTSKLHSGVPSRFSGSGSGTDYSLTIRNLEQEDIATYFCQQGNTLPLTFGGGTKLEIKR
## Output 0.17

## Input Which Average IC50, IL-13-induced TARC production by A-549 cells is reported for this binder? 9C11 (antibody, V domains shown) VH: QVRLQQPGAELVRPGASVKLSCKASGYTFTSSWIHWVNQRPGQGLEWIGMIHPSDSETRLNQKFKDKATLTVDKSSSTAYMQLSSPTSEDSAVYYCASTATDFDYWGQGTTLTVSS VL: DVVLTQTPLSLPVNIGDQASISCRSTQTLLNSDGFTYLDWYLQKPGQSPQLLIYLVSNRFSGVPDRFSGSGSGTDFTLKISRVEAEDLGVYYCFQNNYLPLTFGAGTKLELKR
## Output 0.17

## Input Which Average IC50, IL-13-induced TARC production by A-549 cells is reported for this binder? 5G1 (antibody, V domains shown) VH: QVQLQQSGAELARPGTSVKLSCKASGYTFTTYGVSWVKQRTGQGLEWIGEIYPGNYNTYYNEKFRGKATLTADKSSSTAYMQLSSLTSEDSAVYFCSRWRTSYFSDYGYFDYWGQGTTLTVSS VL: DVVMTQTPLSLPVSLGDQASISCRSSQSLVHSHGNTYLHWYLQKPGQSPKLLIYTVSNRFSGVPDRFSGSGSGTDFTLKISRVEAEDLGVYFCSQSTHVPYTFGGGTKLEIKR
## Output 0.048
